Quick list: MCC per entry.
ASSAY_METHOD_TEXT: Cytotoxicity against HEL cells infected with Varicella-Zoster virus assessed as alteration in cell morphology by microscopic method
Format: cell-based
TEST_CONDITIONS: human, HEL cells infected with Varicella-Zoster virus
REPORTED_PROPERTY: MCC (µM)

- CCOP(=O)(OCC)C1CC(Cn2c(=O)n(Cc3cccc(F)c3)c(=O)c3ccccc32)ON1Cc1ccccc1 (mixture of isomers; cis): 100
- CCOP(=O)(OCC)[C@@H]1C[C@@H](Cn2c(=O)n(C(=O)c3ccc(F)cc3)c(=O)c3ccccc32)ON1Cc1ccccc1 (relative stereo): 100
- CCOP(=O)(OCC)[C@@H]1C[C@@H](Cn2c(=O)n(Cc3ccccc3F)c(=O)c3ccccc32)ON1C (relative stereo): 100

----------
Catalogue of MCC readings, one per entry.
ASSAY_METHOD_TEXT: Cytotoxicity against HEL cells infected with Varicella-Zoster virus assessed as alteration in cell morphology by microscopic method
Type: cell-based
TEST_CONDITIONS: human, HEL cells infected with Varicella-Zoster virus
REPORTED_PROPERTY: MCC (µM)

* CCOP(=O)(OCC)C1CC(Cn2c(=O)n(Cc3ccccc3F)c(=O)c3ccccc32)ON1Cc1ccccc1 (stereo not given) | 100
* CCOP(=O)(OCC)C1CC(Cn2c(=O)n(C(=O)c3ccc(F)cc3)c(=O)c3ccccc32)ON1Cc1ccccc1 (mixture of isomers) | 100
* CCOP(=O)(OCC)C1CC(Cn2c(=O)n(C(=O)c3ccccc3F)c(=O)c3ccccc32)ON1Cc1ccccc1 (mixture of isomers) | 100
* CCOP(=O)(OCC)[C@@H]1C[C@@H](Cn2c(=O)n(C(=O)c3ccccc3)c(=O)c3ccccc32)ON1Cc1ccccc1 (relative stereo) | 100
* CCOP(=O)(OCC)[C@@H]1C[C@@H](Cn2c(=O)n(Cc3ccccc3)c(=O)c3ccccc32)ON1C (relative stereo) | 100
* CCOP(=O)(OCC)C1CC(Cn2c(=O)n(Cc3ccccc3)c(=O)c3ccccc32)ON1Cc1ccccc1 (mixture of isomers; cis) | 100
* CCOP(=O)(OCC)[C@H]1C[C@@H](Cn2c(=O)n(C(=O)c3ccccc3)c(=O)c3ccccc32)ON1Cc1ccccc1 (relative stereo) | 100
* CCOP(=O)(OCC)[C@@H]1C[C@@H](Cn2c(=O)n(Cc3ccc(F)cc3)c(=O)c3ccccc32)ON1C (relative stereo) | 10

----------
List of EC50 values.
Test system: Human alphaherpesvirus 1
ASSAY_METHOD_TEXT: Antiviral activity against Herpes simplex virus 1 KOS infected in HEL cells assessed as reduction in virus-induced cytopathogenicity
Assay type: functional, cell-based
TEST_CONDITIONS: Human alphaherpesvirus 1, KOS
REPORTED_PROPERTY: EC50 (µM)

* CCOP(=O)(OCC)[C@@H]1C[C@@H](Cn2c(=O)n(C(=O)c3ccc(F)cc3)c(=O)c3ccccc32)ON1C (relative stereo) | 39
* Nc1ccn(C[C@@H](CO)OCP(=O)(O)O)c(=O)n1 [CIDOFOVIR] | 2

----------
Tested on: HeLa
ASSAY_METHOD_TEXT: Anti-proliferative activity against human HeLa cells measured after 4 days by coulter counter method
Format: ADME, cell-based
TEST_CONDITIONS: hela
pIC50: −log10 of the molar value.
Reported pIC50 values are given for each entry in this list.
REPORTED_PROPERTY: pIC50

• CCOP(=O)(OCC)C1CC(Cn2c(=O)n(Cc3ccccc3)c(=O)c3ccccc32)ON1Cc1ccccc1 (mixture of isomers; cis) = 4.48
• CCOP(=O)(OCC)C1CC(Cn2c(=O)n(Cc3ccccc3)c(=O)c3ccccc32)ON1Cc1ccccc1 (mixture of isomers; trans) = 4.14
• CCOP(=O)(OCC)C1CC(Cn2c(=O)n(Cc3cccc(F)c3)c(=O)c3ccccc32)ON1Cc1ccccc1 (mixture of isomers; trans) = 4.20
• CCOP(=O)(OCC)C1CC(Cn2c(=O)n(Cc3ccc(F)cc3)c(=O)c3ccccc32)ON1Cc1ccccc1 (mixture of isomers; trans) = 4.74

These data points were gathered from ChEMBL document CHEMBL3994569.
